Let's look at some molecules and their measured IC50.
Test system: KRAS PDC tumor spheroids (HUVEC+MSC), viability;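 note: spheroids exposed to compounds for seven days before readout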
Assay Info: Anticancer human tumor 254851-301-R-J1-PDC patient-derived colon carcinoma cell line growth inhibition [KRAS2]
Condition Label: curve of first compound; second compound 10 µM

COc1cc2nccc(Oc3ccc(NC(=O)C4(C(=O)Nc5ccc(F)cc5)CC4)cc3)c2cc1OC + C=CC(=O)N1CCN(c2nc(=O)n(-c3c(C)ccnc3C(C)C)c3nc(-c4c(O)cccc4F)c(F)cc23)C(C)C1 | > 10000 nM
CC1(C)CCC(CN2CCN(c3ccc(C(=O)NS(=O)(=O)c4ccc(NCC5CCOCC5)c([N+](=O)[O-])c4)c(Oc4cnc5[nH]ccc5c4)c3)CC2)=C(c2ccc(Cl)cc2)C1 + COc1cc2nc(C)nc(NC(C)c3cc(N)cc(C(F)(F)F)c3)c2cc1OC1CCOC1 | 1730 nM
O=C(c1cc(Cc2n[nH]c(=O)c3ccccc23)ccc1F)N1CCN(C(=O)C2CC2)CC1 + C=CC(=O)N1CCN(c2nc(=O)n(-c3c(C)ccnc3C(C)C)c3nc(-c4c(O)cccc4F)c(F)cc23)C(C)C1 | > 10000 nM
CC(=O)Nc1cccc(-n2c(=O)n(C3CC3)c(=O)c3c(Nc4ccc(I)cc4F)n(C)c(=O)c(C)c32)c1 + COc1cc2nc(C)nc(NC(C)c3cc(N)cc(C(F)(F)F)c3)c2cc1OC1CCOC1 | 0.663 nM
CC1COCCN1c1cc(-c2ccnn2C)c2ccnc(-c3ccn[nH]3)c2n1 (stereo not given) + CNCc1ccccc1-c1csc(C(C)Nc2nc(C)nc3cc(OC)c(OC)cc23)c1 | < 10 nM

Task: Fill in: IC50 of COc1cc(Nc2ncc3c(n2)-c2ccc(Cl)cc2C(c2c(F)cccc2OC)=NC3)ccc1C(=O)O + CNCc1ccccc1-c1csc(C(C)Nc2nc(C)nc3cc(OC)c(OC)cc23)c1 is ___
Output: < 31.6 nM

Task: Try the molecule CN(C)C/C=C/C(=O)Nc1cc2c(Nc3ccc(F)c(Cl)c3)ncnc2cc1O[C@H]1CCOC1 + CNCc1ccccc1-c1csc(C(C)Nc2nc(C)nc3cc(OC)c(OC)cc23)c1
Output: < 0.316 nM

Task: Another: CC(=O)OC12COC1CC(O)C1(C)C(=O)C(O)C3=C(C)C(OC(=O)C(O)C(NC(=O)OC(C)(C)C)c4ccccc4)CC(O)(C(OC(=O)c4ccccc4)C21)C3(C)C (stereo not given) + CNCc1ccccc1-c1csc(C(C)Nc2nc(C)nc3cc(OC)c(OC)cc23)c1
Output: < 10 nM

Task: // next record COc1cc2nccc(Oc3ccc(NC(=O)C4(C(=O)Nc5ccc(F)cc5)CC4)cc3)c2cc1OC + CNCc1ccccc1-c1csc(C(C)Nc2nc(C)nc3cc(OC)c(OC)cc23)c1
Output: < 31.6 nM

Task: Item: CN(C)C/C=C/C(=O)Nc1cc2c(Nc3ccc(F)c(Cl)c3)ncnc2cc1O[C@H]1CCOC1 + COc1cc2nc(C)nc(NC(C)c3cc(N)cc(C(F)(F)F)c3)c2cc1OC1CCOC1
Output: > 100 nM
